- test.method.notes: Half-life in Sprague-Dawley rat at 3 mg/kg, po measured for 24 hrs by LC-MS/MS analysis
- Type: ADME, organism-based
- assay.context: in vivo
outcome.measure: half-life (h)
Provide only the numeric value, understood in h.

Q. In one line, give reported half-life of the entry Cc1cc(/C=C2\Oc3cc(OCC4CC4)ccc3C2=O)cc(C)c1OC(C)(C)C(=O)O .
A. 3.85

* * *

- target.or.test.system: Peroxisome proliferator-activated receptor delta (Homo sapiens, UniProt Q03181)
- Sequence (Q03181 whole entry): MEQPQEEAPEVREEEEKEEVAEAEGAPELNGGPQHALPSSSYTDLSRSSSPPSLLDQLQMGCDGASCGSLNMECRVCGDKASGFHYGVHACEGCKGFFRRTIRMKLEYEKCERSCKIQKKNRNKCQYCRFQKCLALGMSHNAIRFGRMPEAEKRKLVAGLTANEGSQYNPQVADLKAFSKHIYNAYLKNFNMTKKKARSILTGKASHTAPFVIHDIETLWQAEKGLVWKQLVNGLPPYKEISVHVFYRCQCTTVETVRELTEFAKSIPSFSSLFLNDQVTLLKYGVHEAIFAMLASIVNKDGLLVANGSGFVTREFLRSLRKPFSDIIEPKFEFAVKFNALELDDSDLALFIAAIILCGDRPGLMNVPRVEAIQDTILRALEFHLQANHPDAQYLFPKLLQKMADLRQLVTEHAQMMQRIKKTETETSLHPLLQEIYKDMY
- test.method.notes: Agonist activity at human PPARdelta transfected in human HEK293 cells incubated for 18 hrs by Renilla/Firefly dual-luciferase reporter assay
- Type: cell-based
outcome.measure: pEC50
// field semantics: pEC50 = negative decimal log of concentration (mol/L)

Q. Give pEC50 for the following molecule: COc1ccc2c(c1)O/C(=C\c1cc(C)c(OCC(=O)O)c(C)c1)C2=O
A. 5.49

* * *

- target.or.test.system: Peroxisome proliferator-activated receptor alpha (Homo sapiens)
- Sequence (Q07869 whole entry): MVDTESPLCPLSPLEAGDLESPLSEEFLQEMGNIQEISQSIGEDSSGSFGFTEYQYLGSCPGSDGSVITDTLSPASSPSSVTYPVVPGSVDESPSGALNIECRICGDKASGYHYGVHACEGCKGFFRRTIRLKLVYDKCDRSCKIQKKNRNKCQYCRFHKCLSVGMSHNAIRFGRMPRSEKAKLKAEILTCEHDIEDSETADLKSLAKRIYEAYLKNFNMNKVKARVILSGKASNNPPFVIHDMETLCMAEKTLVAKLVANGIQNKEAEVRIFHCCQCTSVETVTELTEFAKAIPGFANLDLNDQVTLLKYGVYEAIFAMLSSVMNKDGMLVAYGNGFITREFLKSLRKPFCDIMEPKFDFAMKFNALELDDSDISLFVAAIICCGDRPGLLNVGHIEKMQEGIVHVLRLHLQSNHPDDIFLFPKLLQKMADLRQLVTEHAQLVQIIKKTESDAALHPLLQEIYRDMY
- test.method.notes: Agonist activity at human PPARalpha transfected in human HepG2 cells incubated for 18 hrs by Renilla/Firefly dual-luciferase reporter assay
Would you mind telling me the reported pEC50 of each entry?
pEC50 is defined as minus the log10 of a concentration measured in mol/L.

Q. Look up pEC50 of Cc1cc(/C=C2\Oc3cc(OCCC(C)C)ccc3C2=O)cc(C)c1OC(C)(C)C(=O)O and report it.
A. 5.11

Q. Supply measured pEC50 of CCCOc1ccc2c(c1)O/C(=C\c1cc(C)c(OC(C)(C)C(=O)O)c(C)c1)C2=O in your reply.
A. 5.16

Q. Entry CCOc1ccc2c(c1)O/C(=C\c1cc(C)c(OC(C)(C)C(=O)O)c(C)c1)C2=O needs its pEC50 filled in; supply it.
A. 5.33

Q. Note down pEC50 recorded for COc1ccc2c(c1)O/C(=C\c1cc(C)c(OC(C)(C)C(=O)O)c(C)c1)C2=O
A. 5.43

Q. Give recorded pEC50. CSc1ccc(C(=O)/C=C/c2cc(C)c(OC(C)(C)C(=O)O)c(C)c2)cc1 [ELAFIBRANOR]
A. 6.43

* * *

- test.method.notes: AUC (0 to 24 hrs) in Sprague-Dawley rat at 3 mg/kg, po measured after 24 hrs by LC-MS/MS analysis
- Format: ADME, organism-based
- Parameters: route oral, time 24 hrs, dose 3 mg/kg
- assay.context: in vivo
outcome.measure: AUC(0-t) at 24 h (ng·h/mL)
Expressed in ng·h/mL, but write only the number.

Q. Hello, please tell me recorded AUC(0-t) at 24 h for this one: Cc1cc(/C=C2\Oc3cc(OCC4CC4)ccc3C2=O)cc(C)c1OC(C)(C)C(=O)O
A. 51100

* * *

- test.method.notes: Cmax in Sprague-Dawley rat at 3 mg/kg, po measured for 24 hrs by LC-MS/MS analysis
- Type: ADME, organism-based
- Set-up: route oral, dose 3 mg/kg, time 24 hrs
- assay.context: in vivo
outcome.measure: Cmax (ng/mL)
Kindly provide the numeric value in ng/mL only, without the unit symbol.

Q. Identify measured Cmax corresponding to Cc1cc(/C=C2\Oc3cc(OCC4CC4)ccc3C2=O)cc(C)c1OC(C)(C)C(=O)O
A. 8670
